# STUDY_TARGET: Fn1419 (Fusobacterium nucleatum subsp. nucleatum, UniProt Q8RDT4)
# Construct: Fn1419 (GeneBank: AAL95612.1, residues 1–395); His-tag (N); made in house; host or cells: E. coli BL21 (DE3)
# Sequence (Q8RDT4 whole entry, the tested form may be a part): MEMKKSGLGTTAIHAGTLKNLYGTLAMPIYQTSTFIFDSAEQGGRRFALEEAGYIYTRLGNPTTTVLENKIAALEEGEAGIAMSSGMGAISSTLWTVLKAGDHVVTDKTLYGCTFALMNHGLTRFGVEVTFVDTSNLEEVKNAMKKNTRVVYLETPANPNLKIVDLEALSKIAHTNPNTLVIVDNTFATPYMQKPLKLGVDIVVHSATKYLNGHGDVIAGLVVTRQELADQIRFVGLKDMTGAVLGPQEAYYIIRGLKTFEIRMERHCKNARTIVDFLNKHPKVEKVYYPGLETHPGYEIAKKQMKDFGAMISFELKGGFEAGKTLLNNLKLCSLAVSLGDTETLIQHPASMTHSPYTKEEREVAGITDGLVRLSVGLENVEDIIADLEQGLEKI
# Format: biochemical
# ASSAY_SETUP: 100 μM compound, 5.75 nM Fn1419, 500 μM L-cysteine
Structures can show the parent of a compound that is named as a salt.
ASSAY_READOUT: product increase rate (MGL^Cys activity of Fn1419 enhanced) (%)
Answer format: numeric, % implied, no suffix.

The examples below pair each entry with its known result.
COc1cc2c(cc1OC)[C@@H]1Cc3ccc(OC)c(OC)c3CN1CC2 [L-tetrahydropal matrine] | 71.7
C[N+](C)(C)CC(=O)O [betaine-HCl] | 24

Now consider the entry below.
Prompt: Identify measured product increase rate (MGL^Cys activity of Fn1419 enhanced) associated with N[C@@H](Cc1c[nH]c2ccc(O)cc12)C(=O)O [5-hydroxyl tryptophan]
Response: 53.0

Data provenance is paper PMC9865163.
